test: self-splicing fitness, log relative to wild type (ln ratio); higher = more splicing; Tetrahymena group I intron in knt gene, E. coli kanamycin selection, DiMSum; sequences stand for … in CUCUCU…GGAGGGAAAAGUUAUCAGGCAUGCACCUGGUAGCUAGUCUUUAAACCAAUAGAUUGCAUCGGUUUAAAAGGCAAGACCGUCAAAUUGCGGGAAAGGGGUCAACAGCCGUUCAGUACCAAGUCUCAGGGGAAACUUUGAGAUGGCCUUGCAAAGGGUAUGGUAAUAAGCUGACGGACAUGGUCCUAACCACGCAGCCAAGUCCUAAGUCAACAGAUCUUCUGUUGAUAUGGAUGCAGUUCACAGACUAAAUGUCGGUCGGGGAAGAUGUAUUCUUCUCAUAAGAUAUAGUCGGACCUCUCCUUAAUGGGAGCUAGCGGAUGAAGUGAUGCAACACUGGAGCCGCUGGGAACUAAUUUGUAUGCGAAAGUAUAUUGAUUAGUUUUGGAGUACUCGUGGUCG; conditions: 37 °C;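 further: selection with 25 µg/mL kanamycin versus none on LB agar overnight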
Assign criterion met to entries whose self-splicing fitness (ln) meets or exceeds -2; assign criterion not met to the rest.

CGUGAGCAAUAUUACGAAGU: criterion not met
GCGUAGCAAUAUUACGGACU: criterion met
UUUAAGCAAUAUUACGGCAC: criterion met
AUGUAGCAAUAUUACGCGGA: criterion met
GAUAAGCAAUAUUACGACUU: criterion met
AGUAAGCAAUAUUACGACUG: criterion met
CCGCAGCAAUAUUACGGAGU: criterion not met
GCUUAGCAAUAUUACGCAAG: criterion not met
ACUUAGCAAUAUUACGUUAG: criterion met
CAGAAGCAAUAUUACGCGCU: criterion met

Request: Assess whether reported self-splicing fitness (ln) for AUGGAGCAAUAUUACGUAAG sits at -2 or higher.
Response: criterion met

Request: Is self-splicing fitness (ln) for GGUGAGCAAUAUUACGCAUG at or above -2?
Response: criterion met

Request: // inclusive: self-splicing fitness (ln) at least -2? input: GGCUAGCAAUAUUACGACCA
Response: criterion met

Request: Given the entry UAUAAGCAAUAUUACGUCUC , answer whether its self-splicing fitness (ln) meets or surpasses -2.
Response: criterion not met
